- target_or_test_system: APOL1 (Homo sapiens, UniProt O14791)
- Sequence (O14791 whole entry S342G/I384M, form open): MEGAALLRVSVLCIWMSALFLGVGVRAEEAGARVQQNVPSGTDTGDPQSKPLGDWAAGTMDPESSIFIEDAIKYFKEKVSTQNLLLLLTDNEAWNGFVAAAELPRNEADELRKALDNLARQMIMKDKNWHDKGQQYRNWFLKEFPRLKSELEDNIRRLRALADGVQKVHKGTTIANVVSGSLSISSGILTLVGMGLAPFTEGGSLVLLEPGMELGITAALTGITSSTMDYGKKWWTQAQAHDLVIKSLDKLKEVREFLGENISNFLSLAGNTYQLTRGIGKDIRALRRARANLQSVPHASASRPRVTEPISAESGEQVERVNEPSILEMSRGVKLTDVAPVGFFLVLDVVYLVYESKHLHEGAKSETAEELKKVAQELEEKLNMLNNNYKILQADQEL
- protocol_notes: MultiTox-Fluor Multiplex Cytotoxicity Assay in tet-inducible APOL1 T-REx-HEK293 cells (cell rescue, ratio of dead to live cells)
- Format: cell-based
- run_conditions: tet-inducible transgenic APOL1 T-REx-HEK293 cell lines, 50 ng/mL tet, 24 hours; read-out: IP50 (i.e., IC50 for cell proliferation)
pIC50: −log10 of the molar value.
Exercise: state measured pIC50 for each of the compounds provided.

Returns the measured pIC50 for the input compound. Input: CCc1cc2c(s1)CCOC21CCN(Cc2cn(CCS(=O)(=O)C3CCOCC3)nn2)CC1 [Compound 1091]
6.00 to 6.30

Returns the measured pIC50 for the input compound. Input: CCc1cc2c(s1)CCO[C@@]21CCN(Cc2cn(CS(=O)(=O)CC)nn2)[C@@H](C)C1 [Compound 14]
6.30 to 7.00

Returns the measured pIC50 for the input compound. Input: CCc1cc2c(s1)CCOC21CCN(Cc2ccc(C(=O)NC(C)(C)CO)nc2)CC1 [Compound 1047]
> 7.00

Returns the measured pIC50 for the input compound. Input: COc1ccc(CN2CC[C@]3(C[C@@H]2C)OC[C@H](O)c2cc(Cl)sc23)cc1OCC(N)=O [Compound 772]
> 7.00

Returns the measured pIC50 for the input compound. Input: CCc1cc2c(s1)CCO[C@@]21CCN(C[C@H]2C[C@@H](NC(=O)C(C)S(C)(=O)=O)C2)[C@@H](C)C1 (some centres unmarked) [Compound 341]
> 7.00

Returns the measured pIC50 for the input compound. Input: C[C@H]1C[C@@]2(CCN1C[C@H](O)CO)OCCc1cc(CC(F)F)sc12 [Compound 607]
6.30 to 7.00

Returns the measured pIC50 for the input compound. Input: C[C@H]1C[C@@]2(CCN1Cc1cnn(CCS(C)(=O)=O)c1)OCCc1cc(Cl)sc12 [Compound 697]
> 7.00

Returns the measured pIC50 for the input compound. Input: CCc1cc2c(s1)CCO[C@@]21CCN(Cc2cn(C[C@H]3C[C@H](O)C3)nn2)[C@@H](C)C1 [Compound 142]
6.30 to 7.00

Returns the measured pIC50 for the input compound. Input: Cc1cc2c(s1)CCO[C@@]21CCN(Cc2cnn(CCS(C)(=O)=O)c2)[C@H](C)C1 [Compound 517]
6.30 to 7.00

Returns the measured pIC50 for the input compound. Input: CCc1cc2c(s1)CCO[C@@]21CCN(C[C@H]2C[C@@H](NC(=O)OCCOCCOCCOC(=O)NCCOCCOCCCCCCCl)C2)[C@@H](C)C1 [Compound 386]
> 7.00

Returns the measured pIC50 for the input compound. Input: CCCNC(=O)c1c(C(F)(F)F)sc2c1CCO[C@@]21CCN(Cc2cn(CCS(C)(=O)=O)nn2)[C@@H](C)C1 [Compound 1007]
6.00 to 6.30

Returns the measured pIC50 for the input compound. Input: C[C@H]1C[C@@]2(CCN1Cc1cnn(CC(O)CC3(O)CCCC3)c1)OCCc1c2sc(C(F)(F)F)c1CO (some centres unmarked) [Compound 962]
> 7.00

Returns the measured pIC50 for the input compound. Input: C[C@H]1C[C@@]2(CCN1CC1CCOCC1)OCCc1cc(Cl)sc12 [Compound 685]
6.00 to 6.30

Returns the measured pIC50 for the input compound. Input: C[C@H]1C[C@@]2(CCN1Cc1cnn(CCS(C)(=O)=O)c1)OCC(O)(C(F)(F)F)c1cc(Cl)sc12 (some centres unmarked) [Compound 852]
> 7.00
